subjectOfTest: TACE enzyme (Homo sapiens)
Sequence (P78536 215-477): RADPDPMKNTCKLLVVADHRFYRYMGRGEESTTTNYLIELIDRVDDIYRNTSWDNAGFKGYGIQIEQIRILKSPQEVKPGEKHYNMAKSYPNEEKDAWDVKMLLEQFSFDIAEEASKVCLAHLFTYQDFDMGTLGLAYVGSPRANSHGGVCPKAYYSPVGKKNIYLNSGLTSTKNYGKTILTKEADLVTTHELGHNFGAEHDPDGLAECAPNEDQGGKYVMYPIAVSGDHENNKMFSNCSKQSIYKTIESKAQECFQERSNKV
testMethodNotes: Enzymatic assay for TACE inhibition (fluorescent substrate)
Assay type: biochemical
experimentalSetup: Table 1; read-out: IC50 - TACE
reportedEndpoint: IC50
Kindly write the number and append the unit.

GET /values?readout=IC50&system=TACE enzyme (Homo sapiens)&item= CN(C[C@@H](C(=O)NO)N1CCN(S(C)(=O)=O)CC1)S(=O)(=O)c1ccc(OCc2ccccc2)cc1
497 nM

###

subjectOfTest: MMP-12 (Homo sapiens, UniProt P39900)
Sequence (P39900 106-470): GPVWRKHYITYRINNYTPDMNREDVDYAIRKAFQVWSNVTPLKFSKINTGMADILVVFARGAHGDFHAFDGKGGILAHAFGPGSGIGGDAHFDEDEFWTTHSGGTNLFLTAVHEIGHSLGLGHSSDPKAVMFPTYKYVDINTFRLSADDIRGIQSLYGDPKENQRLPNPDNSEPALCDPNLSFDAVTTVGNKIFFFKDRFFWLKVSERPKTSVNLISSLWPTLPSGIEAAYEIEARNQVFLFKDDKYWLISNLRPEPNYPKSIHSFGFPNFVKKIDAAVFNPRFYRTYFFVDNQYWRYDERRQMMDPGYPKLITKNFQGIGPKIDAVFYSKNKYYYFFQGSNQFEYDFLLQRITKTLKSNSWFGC
testMethodNotes: Inhibition of MMPs, MMP-12
Type: biochemical
experimentalSetup: Table 3, Example 30
reportedEndpoint: IC50

Report IC50 for Cc1cc(COc2ccc(S(=O)(=O)NC[C@@H](C(=O)NO)N3CCCCC3)cc2)c2ccccc2n1 please.
977 nM

Continuing:
# get_value(readout='IC50', item= Cc1cc(COc2ccc(S(=O)(=O)NC[C@@H](C(=O)NO)N3CCOCC3)cc2)c2ccccc2n1 )
226 nM

###

subjectOfTest: MMP-1 (Homo sapiens)
Construct: purchased Calbiochem
Sequence (P03956 100-469): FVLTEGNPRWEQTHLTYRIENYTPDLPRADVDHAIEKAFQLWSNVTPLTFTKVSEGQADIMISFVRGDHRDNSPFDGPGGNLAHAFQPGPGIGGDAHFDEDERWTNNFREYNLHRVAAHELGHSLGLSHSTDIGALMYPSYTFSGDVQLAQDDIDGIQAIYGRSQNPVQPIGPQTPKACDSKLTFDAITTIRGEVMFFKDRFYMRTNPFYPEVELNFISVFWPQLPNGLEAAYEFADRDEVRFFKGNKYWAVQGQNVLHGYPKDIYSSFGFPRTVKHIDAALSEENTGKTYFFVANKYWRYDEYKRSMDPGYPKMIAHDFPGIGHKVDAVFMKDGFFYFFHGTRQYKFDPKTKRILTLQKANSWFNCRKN
testMethodNotes: Selectivity assay, MMP-1
Assay type: biochemical
experimentalSetup: Table 3, Example 30
reportedEndpoint: IC50 (nM)
Could you give me the number in nM? Just the number is fine.

Please look up its IC50: Cc1cc(COc2ccc(S(=O)(=O)NC[C@@H](C(=O)NO)N3CCC(S(=O)(=O)C(C)C)CC3)cc2)c2ccccc2n1 [Compound D]
969
